Ref: paper PMC9005681

TARGET UNDER TEST: cloned human or rodent CNS receptors, channels, and transporters (PDSP panel) (Homo sapiens)
Construct: expressed in transfected cells
ASSAY NOTES: PDSP GPCR panel primary binding assays at 10 μM
CONDITION CONTEXT: Receptor M3; primary assay, 10 μM
ATTRIBUTE MEASURED: Inhibition 1

Example entries begin here.
[
  {
    "MOLECULE": "CCCCNc1ncc2c(-c3ccc(CN4CCN(C)CC4)cc3)cn([C@H]3CC[C@H](O)CC3)c2n1 [UNC2025C, UNC2025]",
    "ENDPOINT VALUE": "-7.29%"
  },
  {
    "MOLECULE": "Cl.NC(=O)c1cnc(N[C@@H]2CCCC[C@@H]2N)nc1Nc1cccc(-n2nccn2)c1 [UNC10302682A, P505-15 (PRT06207 HCl)]",
    "ENDPOINT VALUE": "28.46%"
  },
  {
    "MOLECULE": "O=c1oc2ccccc2cc1-c1cn2cc(Cc3ccc(F)cc3)sc2n1 [UNC10302680A, iMDK]",
    "ENDPOINT VALUE": "9.1%"
  }
]

Turning now to a further molecule:
Enquiry: Provide one value: measured Inhibition 1 of c1cn2cc(-c3ccc4cn[nH]c4c3)nc(Nc3ccc(N4CCOCC4)cc3)c2n1 [UNC10302678A, Entospletinib (GS-9973)]
Return: 13.32%

====

TARGET UNDER TEST: cloned human or rodent CNS receptors, channels, and transporters (PDSP panel) (Homo sapiens, UniProt P08908)
Construct: expressed in transfected cells
Sequence (P08908 1-422): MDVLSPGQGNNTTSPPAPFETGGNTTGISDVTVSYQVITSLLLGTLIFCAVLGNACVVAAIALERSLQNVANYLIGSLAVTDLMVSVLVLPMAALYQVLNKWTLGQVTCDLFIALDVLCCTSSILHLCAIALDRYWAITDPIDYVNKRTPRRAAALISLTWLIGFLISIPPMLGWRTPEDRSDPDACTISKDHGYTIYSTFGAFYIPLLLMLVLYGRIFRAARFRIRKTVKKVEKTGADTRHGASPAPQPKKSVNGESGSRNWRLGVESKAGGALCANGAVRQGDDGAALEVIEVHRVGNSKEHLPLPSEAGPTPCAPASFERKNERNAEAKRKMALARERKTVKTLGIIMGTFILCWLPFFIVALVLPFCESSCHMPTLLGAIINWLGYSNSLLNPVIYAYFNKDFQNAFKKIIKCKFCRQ
ASSAY NOTES: PDSP GPCR panel primary binding assays at 10 μM
CONDITION CONTEXT: 5-HT1A; primary assay, replicate 4
Description: GPCR panel: Screening against the receptors within the PDSP panel offers an assessment of off-target pharmacological activity at cloned human or rodent CNS receptors, channels, and transporters that could confound CNS-related phenotypes. A total of 46–47 primary binding assays were run in quadruplicate on these compounds at 10 μM, with follow-up secondary binding assays in 11-point dose-response in triplicate for select compounds versus select receptors. […]
ATTRIBUTE MEASURED: Inhibition 4 (%)
Write the value in % as a bare number.

[
  {
    "COMPOUND": "CNc1nc(C)nc(N[C@H]2CCC[C@@H](C(=O)NCc3ccc(C#N)cc3C(F)(F)F)C2)n1 [UNC10302679A, GSK2256294A]",
    "Inhibition 4 / %": 9.39
  },
  {
    "COMPOUND": "CC(=O)N1CCC(NC(=O)NC23CC4CC(CC(C4)C2)C3)CC1 [UNC10302683A, AR9281]",
    "Inhibition 4 / %": -9.91
  },
  {
    "COMPOUND": "O=C(NC1CC1)C(=O)C(Cc1ccccc1)NC(=O)[C@H]1CCC(=O)N1Cc1ccccc1 (stereo partly shown) [UNC10302676A, ABT-957 (Alicapistat)]",
    "Inhibition 4 / %": -6.64
  }
]

Turning now to a further compound:
Enquiry: Provide one value: measured Inhibition 4 of CCC(=O)N1CCC(NC(=O)Nc2ccc(OC(F)(F)F)cc2)CC1 [UNC10302681A, TPPU]
Return: -8.02

====

TARGET UNDER TEST: cloned human or rodent CNS receptors, channels, and transporters (PDSP panel) (Homo sapiens)
Construct: expressed in transfected cells
ASSAY NOTES: PDSP GPCR panel primary binding assays at 10 μM
CONDITION CONTEXT: KOR; primary assay, replicate 1
ATTRIBUTE MEASURED: Inhibition 1 (%)
Write the value in % as a bare number.

Enquiry: Provide one value: measured Inhibition 1 of CNc1nc(C)nc(N[C@H]2CCC[C@@H](C(=O)NCc3ccc(C#N)cc3C(F)(F)F)C2)n1 [UNC10302679A, GSK2256294A]
Return: -18.36

Enquiry: Provide one value: measured Inhibition 1 of CC(=O)N1CCC(NC(=O)NC23CC4CC(CC(C4)C2)C3)CC1 [UNC10302683A, AR9281]
Return: -27.43

Enquiry: Provide one value: measured Inhibition 1 of CCC(=O)N1CCC(NC(=O)Nc2ccc(OC(F)(F)F)cc2)CC1 [UNC10302681A, TPPU]
Return: -11.64

Enquiry: Provide one value: measured Inhibition 1 of O=C(NC1CC1)C(=O)C(Cc1ccccc1)NC(=O)[C@H]1CCC(=O)N1Cc1ccccc1 (stereo partly shown) [UNC10302676A, ABT-957 (Alicapistat)]
Return: -17.69

====

TARGET UNDER TEST: cloned human or rodent CNS receptors, channels, and transporters (PDSP panel) (Homo sapiens, UniProt P28566)
Construct: expressed in transfected cells
Sequence (P28566 whole entry): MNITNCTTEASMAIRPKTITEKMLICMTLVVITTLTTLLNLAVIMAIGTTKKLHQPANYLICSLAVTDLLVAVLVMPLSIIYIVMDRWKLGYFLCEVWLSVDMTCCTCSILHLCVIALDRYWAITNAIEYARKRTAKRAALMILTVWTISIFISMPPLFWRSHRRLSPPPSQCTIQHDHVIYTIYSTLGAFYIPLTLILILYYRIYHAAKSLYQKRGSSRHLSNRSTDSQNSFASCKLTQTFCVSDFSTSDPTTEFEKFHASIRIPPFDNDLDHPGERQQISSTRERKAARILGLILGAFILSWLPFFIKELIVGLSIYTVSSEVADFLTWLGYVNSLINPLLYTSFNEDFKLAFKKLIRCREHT
ASSAY NOTES: PDSP GPCR panel primary binding assays at 10 μM
CONDITION CONTEXT: Receptor 5-HT1E; primary assay, 10 μM
ATTRIBUTE MEASURED: Inhibition 2 (%)
Write the value in % as a bare number.

Example entries begin here.
[
  {
    "COMPOUND": "c1cn2cc(-c3ccc4cn[nH]c4c3)nc(Nc3ccc(N4CCOCC4)cc3)c2n1 [UNC10302678A, Entospletinib (GS-9973)]",
    "Inhibition 2 [%]": -10.95
  },
  {
    "COMPOUND": "O=c1oc2ccccc2cc1-c1cn2cc(Cc3ccc(F)cc3)sc2n1 [UNC10302680A, iMDK]",
    "Inhibition 2 [%]": -14.65
  },
  {
    "COMPOUND": "CCCCNc1ncc2c(-c3ccc(CN4CCN(C)CC4)cc3)cn([C@H]3CC[C@H](O)CC3)c2n1 [UNC2025C, UNC2025]",
    "Inhibition 2 [%]": -8.74
  }
]

Turning now to a further compound:
Enquiry: Provide one value: measured Inhibition 2 of Cl.NC(=O)c1cnc(N[C@@H]2CCCC[C@@H]2N)nc1Nc1cccc(-n2nccn2)c1 [UNC10302682A, P505-15 (PRT06207 HCl)]
Return: -26.62

====

Here the recorded Inhibition 3 is given for each entry.
TARGET UNDER TEST: cloned human or rodent CNS receptors, channels, and transporters (PDSP panel) (Homo sapiens)
Construct: expressed in transfected cells
Sequence (P08912 1-532): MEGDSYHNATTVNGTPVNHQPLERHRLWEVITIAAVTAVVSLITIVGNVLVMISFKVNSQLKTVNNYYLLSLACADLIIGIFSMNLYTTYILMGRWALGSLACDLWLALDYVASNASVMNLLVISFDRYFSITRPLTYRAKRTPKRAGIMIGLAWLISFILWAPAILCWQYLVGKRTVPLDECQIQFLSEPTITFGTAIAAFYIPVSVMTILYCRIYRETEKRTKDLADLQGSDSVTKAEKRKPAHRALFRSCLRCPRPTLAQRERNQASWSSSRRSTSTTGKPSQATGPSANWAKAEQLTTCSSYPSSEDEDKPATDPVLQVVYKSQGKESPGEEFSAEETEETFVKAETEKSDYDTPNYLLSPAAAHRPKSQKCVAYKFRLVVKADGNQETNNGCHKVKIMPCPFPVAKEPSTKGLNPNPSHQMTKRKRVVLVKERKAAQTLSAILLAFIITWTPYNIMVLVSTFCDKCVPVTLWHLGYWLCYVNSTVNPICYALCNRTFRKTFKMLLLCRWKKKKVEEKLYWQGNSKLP
ASSAY NOTES: PDSP GPCR panel primary binding assays at 10 μM
CONDITION CONTEXT: Receptor M5; primary assay, 10 μM
Write the value in % as a bare number.

Example entries begin here.
[
  {
    "COMPOUND": "CCCCNc1ncc2c(-c3ccc(CN4CCN(C)CC4)cc3)cn([C@H]3CC[C@H](O)CC3)c2n1 [UNC2025C, UNC2025]",
    "Inhibition 3 [%]": 19.69
  },
  {
    "COMPOUND": "Cl.NC(=O)c1cnc(N[C@@H]2CCCC[C@@H]2N)nc1Nc1cccc(-n2nccn2)c1 [UNC10302682A, P505-15 (PRT06207 HCl)]",
    "Inhibition 3 [%]": 6.2
  }
]

Enquiry: Provide one value: measured Inhibition 3 of c1cn2cc(-c3ccc4cn[nH]c4c3)nc(Nc3ccc(N4CCOCC4)cc3)c2n1 [UNC10302678A, Entospletinib (GS-9973)]
Return: 1.47

Enquiry: Provide one value: measured Inhibition 3 of O=c1oc2ccccc2cc1-c1cn2cc(Cc3ccc(F)cc3)sc2n1 [UNC10302680A, iMDK]
Return: -6.68
